B1: KLHL12 (parent)
chain: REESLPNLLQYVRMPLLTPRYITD

- Variants of: B1
- protocol: protein stability index of a GFP-peptide fusion (GPS, HEK-293T) (PSI 1-6); higher = more stable;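 also: lentivirally expressed fusions sorted by FACS into six bins by GFP to DsRed ratio, PSI derived from sequencing read proportions per bin multiplied by bin number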
- reported_conditions: c terminus: a fixed tail appended
Label scheme for protein stability index: lower than 3 is False, 3 and above is True.

monomer_sequence | assigned_class
REESLPNALQYVRMPLLTPRYITD | True
REESTPNLLQYVRMPLLTPRYITD | False
REESLPNLCQYVRMPLLTPRYITD | True

INPUT: Confirm if protein stability index reported for the variant REESLPNLLQYVRMPLCTPRYITD is 3 or above.
OUTPUT: False

INPUT: Confirm if protein stability index reported for the variant REESLPNLLQYVRMKLLTPRYITD is 3 or above.
OUTPUT: False

INPUT: Confirm if protein stability index reported for the variant REESLPNLLTYVRMPLLTPRYITD is 3 or above.
OUTPUT: False

INPUT: Confirm if protein stability index reported for the variant REESLKNLLQYVRMPLLTPRYITD is 3 or above.
OUTPUT: False

INPUT: Confirm if protein stability index reported for the variant REESLPNLLQYVRMYLLTPRYITD is 3 or above.
OUTPUT: True

INPUT: Confirm if protein stability index reported for the variant REESLPNLLQYVRMPSLTPRYITD is 3 or above.
OUTPUT: True

INPUT: Confirm if protein stability index reported for the variant REESLPNLLQYVGMPLLTPRYITD is 3 or above.
OUTPUT: False

INPUT: Confirm if protein stability index reported for the variant REESLPNLLQYNRMPLLTPRYITD is 3 or above.
OUTPUT: True

INPUT: Confirm if protein stability index reported for the variant REESLPNLLQYVRMPLLSPRYITD is 3 or above.
OUTPUT: False

INPUT: Confirm if protein stability index reported for the variant REESGPNLLQYVRMPLLTPRYITD is 3 or above.
OUTPUT: False

INPUT: Confirm if protein stability index reported for the variant REESLPNLLQYVRMPLLTPRYIDD is 3 or above.
OUTPUT: True

INPUT: Confirm if protein stability index reported for the variant REESLPNLLQYVRMPLLRPRYITD is 3 or above.
OUTPUT: False
